Each record here notes measured pEC50.
# Measurement description: Agonist activity at human-mouse chimeric GPR119 expressed in tetracycline-induced Flp-In-T-Rex-HEK293 cells assessed as accumulation of cAMP after 50 mins by HTRF assay
# Type: cell-based
# Condition set: HEK293, 50 min
Scale note: pEC50 = -log10(concentration in M).

The cases that follow already have their pEC50 on record.
Compound: CCCc1cnc(N2CCC(Oc3cc(=O)n(-c4ccc(N5CCC(O)C5=O)c(C)n4)cc3Cl)CC2)nc1 (stereo unspecified)
Readout type: pEC50
Experimental result: 8.40
--
Compound: Cc1nc(-n2cc(Cl)c(OC3CCN(c4ncc(Cl)cn4)CC3)cc2=O)ccc1N1CC[C@@H](O)C1=O
Readout type: pEC50
Experimental result: 8.52
--
Compound: Cc1nc(-n2cc(Cl)c(OC3CCN(c4ncc(Cl)cn4)CC3)cc2=O)ccc1N1CC[C@H](O)C1=O
Readout type: pEC50
Experimental result: 8.40
--
Compound: Cc1nc(-n2cc(Cl)c(OC3CCN(c4ncc(Cl)cn4)CC3)cc2=O)ccc1N1CCC(O)C1=O (stereo unspecified)
Readout type: pEC50
Experimental result: 8.70
--
Compound: Cc1nc(-n2ccc(OC3CCN(c4ncc(Cl)cn4)CC3)cc2=O)ccc1N1CCC(O)C1=O (stereo unspecified)
Readout type: pEC50
Experimental result: 8.00

Now for another entry.
# pEC50 (compound: CCCc1cnc(N2CCC(Oc3ccn(-c4ccc(N5CCC(O)C5=O)c(C)n4)c(=O)c3)CC2)nc1 (stereo unspecified) ) is 7.80

----------
# Measurement description: Half life in human liver microsomes at 50 uM preincubated for 5 mins followed by NADPH addition by LC/MS-MS analysis
# Assay type: ADME
Readout type: half-life at 50 µM

Example cases with answers are listed next.
Compound: Cc1nc(-n2cc(Cl)c(OC3CCN(c4ncc(Cl)cn4)CC3)cc2=O)ccc1N1CCC(O)C1=O (stereo unspecified)
half-life at 50 µM: 1.57 h
//
Compound: Cc1nc(-n2cc(Cl)c(OC3CCN(c4ncc(Cl)cn4)CC3)cc2=O)ccc1N1CC[C@H](O)C1=O
half-life at 50 µM: 1.3 h
//
Compound: CCCc1cnc(N2CCC(Oc3ccn(-c4ccc(N5CCC(O)C5=O)c(C)n4)c(=O)c3)CC2)nc1 (stereo unspecified)
half-life at 50 µM: 1.27 h

# compound Cc1nc(-n2ccc(OC3CCN(c4ncc(Cl)cn4)CC3)cc2=O)ccc1N1CCC(O)C1=O (stereo unspecified) ; its half-life at 50 µM = 1.68 h

Looking up Cc1nc(-n2cc(Cl)c(OC3CCN(c4ncc(Cl)cn4)CC3)cc2=O)ccc1N1CC[C@@H](O)C1=O , I found its half-life at 50 µM recorded as 1.62 h

Notebook: CCCc1cnc(N2CCC(Oc3cc(=O)n(-c4ccc(N5CCC(O)C5=O)c(C)n4)cc3Cl)CC2)nc1 (stereo unspecified) , half-life at 50 µM read as 2 h

----------
# Tested on: Mus musculus
# Measurement description: Antidiabetic activity in C57BL/6J mouse assessed as reduction in plasma glucose level at 0.03 mg/kg, po administered for 60 mins followed by glucose challenge measured for 30 to 120 mins by OGTT relative to vehicle-treated control
# Type: functional
# Parameters: scale not given: the % may be the effect or the level left
Readout type: Activity (%)
Quick note: give the figure in %, leave out the unit.

Molecule: Cc1nc(-n2cc(Cl)c(OC3CCN(c4ncc(Cl)cn4)CC3)cc2=O)ccc1N1CCC(O)C1=O (centres undefined)
Assayed target: Mus musculus
Activity / %: 36

What the record says about Cc1nc(-n2cc(Cl)c(OC3CCN(c4ncc(Cl)cn4)CC3)cc2=O)ccc1N1CC[C@H](O)C1=O : Activity is 26

// recorded Activity for CCCc1cnc(N2CCC(Oc3cc(=O)n(-c4ccc(N5CCC(O)C5=O)c(C)n4)cc3Cl)CC2)nc1 (centres undefined) : 19

The recorded Activity for Cc1nc(-n2cc(Cl)c(OC3CCN(c4ncc(Cl)cn4)CC3)cc2=O)ccc1N1CC[C@@H](O)C1=O is 39
